System: OVCAR-4 ovarian
Test: NCI tumour cell line growth inhibition, 48 h
propertyLabel: TGI

• CS(=O)(=O)CC(=O)c1ccccc1 = > 100 µM
• Cc1nnc(N)nc1/C=C/c1c(O)ccc2ccccc12 = 61.1 µM
• O=C(c1ccco1)c1c(C(F)(F)F)n([O-])c2ccc(Cl)cc2[n+]1=O = 5.73 µM
• O=C(O)CC(Sc1ccccc1)c1ccccc1 (centres undefined) = > 100 µM
• COc1cccc(NC(=O)C(=O)C(C(=O)c2ccccc2F)C2OC(=O)c3ccccc32)c1 (centres undefined) = > 100 µM
• O=C1C=CC(=O)c2c1ccc1c3ccccc3n(Cc3cccc([N+](=O)[O-])c3)c21 = > 63.8 µM
• Cc1c(O)c2c(c(O)c1Br)C(=O)C=CC2=O = 2.23 µM
• COc1ccc(/C=C2\C=C(c3ccccc3)N(CCc3ccccc3)C2=O)cc1OC = 87 µM
• Brc1ccc2c(c1)-c1nc3nc4c(cc3cc1CC2)CCc1ccc(Br)cc1-4 = > 100 µM
• CCCCCCCCn1ccc2cc(NC(=O)Cn3cc(CN4CCCCC4)nn3)ccc21 = 14.3 µM
• COC(=O)CCC(C)C1CCC2C3C(C[C@H](OC(C)=O)[C@]12C)[C@@]1(C)CCC2(C[C@H]1C[C@H]3OC(C)=O)OOC1(CC[C@]3(C)C4C[C@H](OC(C)=O)[C@]5(C)C(C(C)CCC(=O)OC)CCC5C4[C@H](OC(C)=O)C[C@@H]3C1)OO2 (some centres undefined) = > 100 µM
• Cc1cc(C)nc(NS(=O)(=O)c2ccc(Nc3c4ccc(Cl)cc4nc4c(C(=O)NCCN(C)C)cccc34)cc2)n1 = > 100 µM
• CC1=CC(N2C(=O)C(C)=CC2O)NC1=O (centres undefined) = > 100 µM
• Cc1ccc(NC(=O)/C(Cl)=C(/Cl)C(=O)O)cc1 = 33.1 µM
• O=C1c2cccc(NCCN=Cc3ccccc3O)c2C(=O)c2c(NCCN=Cc3ccccc3O)cccc21 = 2.39 µM
• COC(=O)C(C/C=C(\C)c1ccc(Cl)cc1)C(C)=O (centres undefined) = > 100 µM
• COc1cccc(N(CN2C(=O)CCC2C(=O)O)C(C)=O)c1 (centres undefined) = > 100 µM
• O=C(NCCNCCCNC(=O)c1cc(-c2ccccc2)nc2ccccc12)c1cccc(OCc2ccccc2)c1OCc1ccccc1 = 3.03 µM
• COc1ccc2nc3ccc(OC)cc3c(SCc3ccccc3)c2c1 = > 100 µM
• CCCCCC/C=C1\CCC(CN2CCOCC2)C1=O (centres undefined) = 38.8 µM
• O=C1OCC2=C1C(c1ccc(Cl)c(Cl)c1)c1cc3c(cc1N2CCO)CCC3 (centres undefined) = 21.4 µM
• O=C(Nc1ccc(/C=C/c2ccc(NC(=O)c3cc(S(=O)(=O)O)c4cccnc4c3O)cc2S(=O)(=O)O)c(S(=O)(=O)O)c1)c1cc(S(=O)(=O)O)c2cccnc2c1O = > 75.2 µM
• CSc1ncc2c(n1)sc1c(=O)n(-c3ccccc3)cnc12 = > 100 µM
• Cc1ccc(NC(=O)c2sc3nc4c(cc3c2N)C(=O)CCC4)cc1C = > 100 µM
• CC(C)Cc1cc2c(cc1O)CCC1C2CC[C@@]2(C)C1CC[C@@H]2O (some centres undefined) = 24.3 µM
• Ic1cc2c(cc1C1SCCCS1)OCO2 = > 100 µM
• Fc1ccc(-c2sc(-c3cccs3)cc2Cc2cccs2)cc1 = > 100 µM
• Cc1cc(N(CCCl)CCCl)ccc1C=Nc1ccc2ccccc2c1 = > 100 µM
• CCOc1cc2oc(C)cc(=O)c2c(OC)c1C=Nc1ccc(Cn2c(C)nc3ccccc32)cc1 = > 100 µM
• C[C@@H](Oc1ccc(C(=O)NS(=O)(=O)C(C)(C)C)cc1C(F)(F)F)c1ccc(Oc2ccccc2)cn1 = 19.7 µM
• COc1ccc(C2CC3(c4ccccc4)ON=C(c4ccccc4)N3c3ccccc3S2)cc1 (centres undefined) = > 100 µM
• CC(C)(C)CC(N)=O = > 100 µM
• O=C(/C(=C\c1ccc(Cl)cc1)c1ccccc1)c1ccccc1 = > 100 µM
• CSc1ccc(/C=C2\N=C(c3ccccc3)N(c3nc4cc(C)c(C)cc4s3)C2=O)cc1 = > 100 µM
• C/C(=N\Nc1nc2cccnc2s1)c1ccccn1 = 29.5 µM
• COC1OC(COC(=O)c2cc(O)c(O)c(O)c2)C(OC(=O)c2cc(O)c(O)c(O)c2)C(OC(=O)c2cc(O)c(O)c(O)c2)C1OC(=O)c1cc(O)c(O)c(O)c1 (centres undefined) = > 100 µM
• COc1ccc(C2=NN(C(=O)c3cc(OC)c(OC)c(OC)c3)C(c3ccc(N(C)C)cc3)C2)cc1 (centres undefined) = > 100 µM
• NC(N)=N/N=C/c1ccc(-c2ccc(-c3cc(Cl)cc(Cl)c3)s2)cc1 = 3.77 µM
• COc1cc(C(=O)Nc2cc(OC)c3ccn(C)c3c2)cc2c1C[C@]1(C)CC[C@@H](O)C(C)(C)[C@H]1O2 = > 100 µM

====

// TGI lookup, one value per entry
Test system: HCT-116 colon
Test: NCI tumour cell line growth inhibition, 48 h
propertyLabel: TGI

- CC(C)(C)c1cc2c(O)c(c1)Cc1cc(C(C)(C)C)cc(c1O)Cc1cc(C(C)(C)C)cc(c1O)Cc1cc(C(C)(C)C)cc(c1O)Cc1cc(C(C)(C)C)cc(c1O)Cc1cc(C(C)(C)C)cc(c1O)Cc1cc(C(C)(C)C)cc(c1O)Cc1cc(C(C)(C)C)cc(c1O)C2: > 50 µM
- Cc1ccc(S(=O)c2sccc2C=O)cc1 (stereo not given): 31 µM
- COc1cc2c(cc1OCCCCOc1cc3c(cc1OC)C(=O)N1CCC[C@H]1C(=O)N3)N=C[C@@H]1CCCN1C2=O: > 100 µM
- O=C(O)C12CCCCC1CCCC2 (stereo not given): > 100 µM
- CC(=O)c1cc(C(=O)c2ccc3c(c2)Sc2ccccc2N3)c2cc(C)ccn12: > 100 µM
- COc1cc2c(cc1OC)C1Cc3cc(OC)c(OC)cc3C(C2)N1C: > 75 µM
- O=C(c1ccco1)c1c(C(F)(F)F)n([O-])c2ccc(Cl)cc2[n+]1=O: 2.84 µM
- CC(C)(C)CC(N)=O: > 100 µM
- COc1ccc(C2CC3(c4ccccc4)ON=C(c4ccccc4)N3c3ccccc3S2)cc1 (stereo not given): > 100 µM
- NCCNCc1c2ccccc2c(CNCCN)c2ccccc12: 48.3 µM

====

Test system: MOLT-4 leukemia
Test: NCI tumour cell line growth inhibition, 48 h; in the data active means GI50 below about 0.43 µM; inactive means the rest
Possible outcomes: active, inactive

- N#C[Se]CCCNS(=O)(=O)C1CC2C=CC1C2 (stereo not given): active
- CCN(CC)C1CCC(Nc2c(C(C)=O)cnc3ccc(-c4ccc(O)c(Cl)c4)cc23)CC1 (stereo not given): active
- COc1ccc(/C=C/C(=O)c2ccc(OC)c(OC)c2)cc1O: inactive
- COc1cc(/C=C/C(=O)N2CCN(C(=O)c3cc(OC)c(OC)c(OC)c3)CC2)ccc1OCCCOc1cc2c(cc1OC)C(=O)N1CCC[C@H]1C=N2: active
- OCc1ccc(N2CCc3ccccc3C2)cc1Cl: inactive

====

Test system: NCI/ADR-RES ovarian
Test: NCI tumour cell line growth inhibition, 48 h
propertyLabel: TGI

* COc1cc(C(=O)N/N=C/c2ccc(N(C)C)cc2)cc(OC)c1OC | 1.6 µM
* Fc1ccc(-c2sc(-c3cccs3)cc2Cc2cccs2)cc1 | > 100 µM
* COc1cc2c(cc1OC)C(=O)/C(=C/c1cc(OC)c(OC)c(OC)c1)C2 | > 100 µM
* Cn1c(=O)c(Oc2ccc(F)cc2F)cc2cnc(NC3CCS(=O)(=O)CC3)nc21 | > 25 µM
* C1CC[C@H]2SSC3CCCC[C@H]3SSC2C1 (stereo partly specified) | > 100 µM
* O=c1ssc(Cl)c1Cl | > 10 µM
* CCOP(=O)(OCC)/C(C#N)=C/c1cnc[nH]1 | > 100 µM
* Cc1cc(C(C)(C)C)cc(CNC2CCCCC2)c1O | 31.2 µM
* COC1=CC(c2ccc[nH]2)=N/C1=C\c1[nH]c(C)c(C(=O)CCCCC(=O)Oc2ccc3c(c2)CCC2C3CC[C@]3(C)[C@@H](O)CC[C@@H]23)c1C (stereo partly specified) | > 100 µM
* COc1ccc(Nc2cc(C)nc(NCCCNc3ccnc4cc(Cl)ccc34)n2)cc1 | 6.27 µM
* CN1CCC2(CC1)C(=NC1CCCCC1)NC(=S)N2c1ccccc1 | > 100 µM
* COc1cc([N+](=O)[O-])c(OC)cc1-c1nc2sc(Cl)cn2c1/C=N/NC1=NCCN1 | > 100 µM
* COC(=O)[C@H](Cc1ccc(OC(C)(C)C)cc1)N[C@H](C)C(=O)N[C@@H](Cc1ccccc1)C(=O)OCc1ccccc1 | > 100 µM
* CS(=O)(=O)CC(=O)c1ccccc1 | > 100 µM
* CN1CCN(c2ccc3nc(-c4ccc5nc(-c6ccc(O)cc6)[nH]c5c4)[nH]c3c2)CC1 | 786 µM
* Brc1ccc2c(c1)-c1nc3nc4c(cc3cc1CC2)CCc1ccc(Br)cc1-4 | > 100 µM
* CCCCCCCCC(=O)OCC(CS[As](C)C)OC(=O)CCCCCCCC (stereo unspecified) | 3.07 µM
* C[C@@H](Oc1ccc(C(=O)NS(=O)(=O)C(C)(C)C)cc1C(F)(F)F)c1ccc(Oc2ccccc2)cn1 | 17.2 µM
* COc1ccc(C2C(C)C(=O)C(C)C(c3ccc(OC)cc3)N2N=O)cc1 (stereo unspecified) | > 1000 µM
* Cn1c(/C=C/[N+](=O)[O-])cc2ccccc21 | 92.5 µM
* COc1ccc(/C=C2\C=C(c3ccccc3)N(CCc3ccccc3)C2=O)cc1OC | 68.5 µM
